Reference for the values: ChEMBL document CHEMBL1150774

Quick reference: Selectivity ratio of the listed items.
Species: Rattus norvegicus
Assay: Selectivity for Sprague-Dawley rat alpha 2 adrenoceptor over Sprague-Dawley rat imidazoline 1 receptor
Lab note: jot down the number only; don't add units.

These recorded examples may help you get a feel for the data.
# smiles string, Selectivity ratio
rows = [
    ("Cl.Clc1ccc2c(cnn2N=C2NCCN2)c1", 149),
    ("Cl.Clc1cccc2c1cnn2N=C1NCCN1", 511),
    ("Clc1ccc2nn(N=C3NCCN3)cc2c1", 0.33),
]

Shifting focus to the compound that follows.
Which Selectivity ratio reading was recorded for the compound `Cc1ccc2c(cnn2N=C2NCCN2)c1.Cl` ?
460
